Molecular target: T1, cynomolgus monkey C-MET His tag, monomeric (cynomolgus monkey, UniProt A0M8R7 25-932 (Papio anubis entry))
T1 construct: also called monomeric cyno C-MET; cyCMET
T1 sequence (A0M8R7 25-932 S170N/I621T): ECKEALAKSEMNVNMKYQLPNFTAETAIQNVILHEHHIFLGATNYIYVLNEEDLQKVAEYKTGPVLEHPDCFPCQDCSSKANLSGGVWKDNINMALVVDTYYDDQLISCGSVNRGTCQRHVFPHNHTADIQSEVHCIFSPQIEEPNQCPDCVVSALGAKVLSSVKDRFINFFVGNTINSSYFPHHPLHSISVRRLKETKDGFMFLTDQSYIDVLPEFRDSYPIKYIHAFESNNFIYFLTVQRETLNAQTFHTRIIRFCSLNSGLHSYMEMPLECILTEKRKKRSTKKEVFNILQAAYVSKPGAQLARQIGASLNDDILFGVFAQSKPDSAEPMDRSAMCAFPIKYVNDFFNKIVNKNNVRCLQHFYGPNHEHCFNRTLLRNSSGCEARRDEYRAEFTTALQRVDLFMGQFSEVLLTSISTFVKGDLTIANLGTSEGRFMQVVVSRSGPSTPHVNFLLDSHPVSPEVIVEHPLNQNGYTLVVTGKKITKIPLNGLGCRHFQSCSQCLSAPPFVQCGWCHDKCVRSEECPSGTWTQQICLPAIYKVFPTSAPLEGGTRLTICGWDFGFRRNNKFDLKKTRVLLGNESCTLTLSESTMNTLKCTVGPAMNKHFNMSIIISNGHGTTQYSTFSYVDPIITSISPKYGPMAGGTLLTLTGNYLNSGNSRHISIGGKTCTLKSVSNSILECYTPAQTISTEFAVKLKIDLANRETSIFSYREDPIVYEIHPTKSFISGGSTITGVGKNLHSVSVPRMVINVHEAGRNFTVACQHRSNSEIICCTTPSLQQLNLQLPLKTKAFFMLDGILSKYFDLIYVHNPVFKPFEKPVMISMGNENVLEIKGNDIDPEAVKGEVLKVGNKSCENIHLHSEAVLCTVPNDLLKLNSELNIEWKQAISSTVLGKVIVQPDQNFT
Test: SPR Biacore, IgG captured, monomeric C-MET-His analyte
Method: Affinity (KD) of purified IgGs was determined via SPR with antigen in-solution on a Biacore® 3000 (GE). […] The obtained sensorgrams were analysed using the Biacore® 3000 evaluation (BIAevaluation) software. The KD was calculated by simultaneous fitting of the association and dissociation phases to a 1:1 Langmuir binding model.
Listed here are binders together with their documented kon.
measured.metric: kon

binder="MH7-3 (antibody, human IgG4, V domains shown) VH: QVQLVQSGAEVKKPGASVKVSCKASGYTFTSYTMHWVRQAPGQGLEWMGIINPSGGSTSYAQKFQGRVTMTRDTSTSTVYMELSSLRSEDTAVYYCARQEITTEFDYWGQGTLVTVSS VL: EIVLTQSPGTLSLSPGERATLSCRASQSVSSYAQSYLHWYQQKPGQAPRLLIYRGSTRETGIPDRFSGSGSGTDFTLTISRLEPEDFAVYYCQQSKESPLTFGGGTKVEIK" value_observed="168000 M⁻¹ s⁻¹"
binder="Grafted clone (Graft), IGHV1-46/IGKV3-20 CDR graft of 224G11 (antibody, human IgG4, V domains shown, also called VH graft/VL graft) VH: QVQLVQSGAEVKKPGASVKVSCKASGYIFTAYTMHWVRQAPGQGLEWMGWIKPNNGLANYAQKFQGRVTMTRDTSTSTVYMELSSLRSEDTAVYYCARSEITTEFDYWGQGTLVTVSS VL: EIVLTQSPGTLSLSPGERATLSCRASQSVDSYANSFLHWYQQKPGQAPRLLIYRASTRESGIPDRFSGSGSGTDFTLTISRLEPEDFAVYYCQQSKEDPLTFGGGTKVEIK" value_observed="230000 M⁻¹ s⁻¹"
binder="MH1 (antibody, IgG4, V domains shown) VH: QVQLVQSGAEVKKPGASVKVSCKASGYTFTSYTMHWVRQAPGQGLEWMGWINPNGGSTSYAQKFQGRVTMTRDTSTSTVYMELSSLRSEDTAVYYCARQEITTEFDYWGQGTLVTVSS VL: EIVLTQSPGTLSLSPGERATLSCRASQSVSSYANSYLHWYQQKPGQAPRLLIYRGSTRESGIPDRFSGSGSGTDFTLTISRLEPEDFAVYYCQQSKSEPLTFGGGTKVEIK" value_observed="180000 M⁻¹ s⁻¹"

src = patent US20260042850A1
